Cited source: ChEMBL document CHEMBL5584307

assay: Oral bioavailability in Cynomolgous monkey at 5 mg/kg measured upto 24 hrs by LC-MS/MS analysis; format: ADME, organism-based, Macaca fascicularis; settings: cynomolgus monkey, in vivo
recorded.metric: bioavailability (%)
Answers are plain numbers, in %.

Given `N#Cc1cc(-c2ccc(C(=O)O)c(O)c2)c2oc(F)cc2c1` , respond with its bioavailability.
42.4

###

target: Xanthine dehydrogenase/oxidase (Homo sapiens); test: Inhibition of xanthine oxidase (unknown origin) by absorbance based assay
Sequence (P47989 whole entry): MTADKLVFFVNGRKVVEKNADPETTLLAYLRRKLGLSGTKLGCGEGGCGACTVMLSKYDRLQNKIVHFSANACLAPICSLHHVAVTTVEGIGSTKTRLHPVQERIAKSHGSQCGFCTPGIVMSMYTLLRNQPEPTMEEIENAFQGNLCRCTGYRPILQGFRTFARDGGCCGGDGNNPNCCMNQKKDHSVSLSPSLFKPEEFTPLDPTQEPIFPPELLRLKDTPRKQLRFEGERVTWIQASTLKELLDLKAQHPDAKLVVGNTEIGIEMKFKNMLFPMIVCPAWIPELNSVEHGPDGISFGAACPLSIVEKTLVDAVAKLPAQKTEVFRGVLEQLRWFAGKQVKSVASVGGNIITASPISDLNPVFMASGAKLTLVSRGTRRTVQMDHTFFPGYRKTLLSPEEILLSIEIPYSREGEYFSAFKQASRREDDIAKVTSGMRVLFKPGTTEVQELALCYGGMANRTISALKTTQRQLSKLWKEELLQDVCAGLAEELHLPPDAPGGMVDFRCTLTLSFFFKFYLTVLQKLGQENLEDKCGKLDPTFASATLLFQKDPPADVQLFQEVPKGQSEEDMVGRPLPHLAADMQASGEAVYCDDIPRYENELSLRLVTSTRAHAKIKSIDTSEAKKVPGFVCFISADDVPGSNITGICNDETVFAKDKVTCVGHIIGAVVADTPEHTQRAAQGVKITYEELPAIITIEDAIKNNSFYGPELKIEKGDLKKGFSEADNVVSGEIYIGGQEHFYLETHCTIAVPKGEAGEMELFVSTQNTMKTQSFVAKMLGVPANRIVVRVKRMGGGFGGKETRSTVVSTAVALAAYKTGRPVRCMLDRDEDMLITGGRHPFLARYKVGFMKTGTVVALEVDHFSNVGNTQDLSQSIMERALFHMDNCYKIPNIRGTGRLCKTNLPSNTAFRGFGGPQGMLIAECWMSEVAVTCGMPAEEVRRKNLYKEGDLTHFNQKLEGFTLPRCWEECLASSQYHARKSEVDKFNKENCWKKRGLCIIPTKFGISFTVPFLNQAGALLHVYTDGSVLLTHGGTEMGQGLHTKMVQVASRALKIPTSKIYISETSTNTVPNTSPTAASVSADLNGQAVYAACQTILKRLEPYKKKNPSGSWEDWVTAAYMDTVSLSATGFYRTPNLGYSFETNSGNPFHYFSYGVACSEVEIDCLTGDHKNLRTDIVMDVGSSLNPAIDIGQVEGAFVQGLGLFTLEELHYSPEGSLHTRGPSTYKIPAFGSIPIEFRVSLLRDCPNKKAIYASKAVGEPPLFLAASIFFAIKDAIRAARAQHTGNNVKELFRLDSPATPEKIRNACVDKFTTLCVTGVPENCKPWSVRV
For each record, write down the corresponding IC50.
Give bare numbers, in nM.

>  <sample.smiles>
O=C(O)c1ccc(-c2cc(C(F)(F)F)cc3ccoc23)cc1O

>  <recorded.metric>
IC50

>  <assay.value>
388

$$$$
>  <sample.smiles>
N#Cc1cc(-c2ccc(C(=O)O)c(O)c2)c2sccc2c1

>  <recorded.metric>
IC50

>  <assay.value>
133

$$$$
>  <sample.smiles>
N#Cc1cc2c(c(-c3ccc(C(=O)O)c(O)c3)c1)OCC2

>  <recorded.metric>
IC50

>  <assay.value>
46

$$$$
>  <sample.smiles>
Cc1cc2cc(C#N)cc(-c3ccc(C(=O)O)c(O)c3)c2o1

>  <recorded.metric>
IC50

>  <assay.value>
61

$$$$
>  <sample.smiles>
N#Cc1cc(-c2ccc(C(=O)O)c(O)c2)c2oc(C(F)(F)F)cc2c1

>  <recorded.metric>
IC50

>  <assay.value>
347

$$$$
>  <sample.smiles>
N#Cc1cc2c(c(-c3ccc(C(=O)O)c(O)c3)c1)CCC2

>  <recorded.metric>
IC50

>  <assay.value>
560

$$$$

Please look at the following molecule next.
Given `N#Cc1cc(-c2ccc(C(=O)O)c(O)c2)c2cc[nH]c2c1` , respond with its IC50.
27
